Origin of the recorded values: paper PMC6780721

Recorded IC50 by entry
- TARGET_SYSTEM: GOBP2 (Conogethes punctiferalis)
- METHOD_SUMMARY: Fluorescence competitive binding assay with 1-NPN, recombinant GOBP2
- STATED_CONDITIONS: ligand concentration halving initial 1-NPN fluorescence; pH 7.4; mean ± SD; read-out: IC50 (μM) GOBP2
MEASURED_ATTRIBUTE: IC50 (µM)

1. CCCCCCCCC=O ... 92.8
2. CCCCC/C=C\CCCCCCCCC=O [Z10-16:Ald, (Z)-10-hexadecenal] ... 8.65
3. CCCCCCCCCCC=O ... 96.7
4. CC(C)=CCC/C(C)=C/CC/C(C)=C/CO ... 3.98
5. CCCCCCO ... 95.2
6. C=C(C)[C@H]1CC=C(C)CC1 ... 35.5
7. CCCCCC=O ... 68.1
8. CCCCC/C=C/CCCCCCCCC=O [E10-16:Ald, (E)-10-hexadecenal] ... 21.4
9. C=C1CC/C=C(\C)CC[C@@H]2[C@@H]1CC2(C)C ... 21
10. CCCCCO ... 98.7
11. CCCCCCC=O ... 56
12. CCCCCCCCCCCCCCCC=O ... 21.1

====

- TARGET_SYSTEM: GOBP2 (Conogethes punctiferalis, UniProt A0A146JYY2)
- Sequence (A0A146JYY2 entry or part of it): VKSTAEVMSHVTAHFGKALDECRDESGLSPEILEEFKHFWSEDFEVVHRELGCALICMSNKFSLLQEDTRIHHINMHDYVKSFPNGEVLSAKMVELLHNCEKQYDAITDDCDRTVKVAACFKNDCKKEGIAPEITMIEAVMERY
- METHOD_SUMMARY: Fluorescence competitive binding assay with 1-NPN, recombinant GOBP2
- STATED_CONDITIONS: 1-NPN fluorescence remaining in competitive binding; pH 7.4; 2 µM protein, 2 µM 1-NPN; mean ± SD, triplicates
- Method: Signal peptides were removed from complete ORF sequences of both genes and primers were designed, using antennal cDNA as the templates the GOBP1 and 2 were amplified and cloned using pEASY-T vector (TransGen Biotech, Beijing, China). The sense and antisense primers designed for GOBP1 and GOBP2. […] Purified protein concentrations of GOBP1 and GOBP2 was determined by the method of Bradford using BSA as standard The western blot method was performed to analyze the correct expression. […]
MEASURED_ATTRIBUTE: Intensity (%) GOBP2

1. O=Cc1ccccc1 [Benzaldehyde] ... 94.76
2. C=CC(C)(O)CCC=C(C)C (stereo not drawn) [Linalool] ... 91.86
3. C=C1CC/C=C(\C)CC[C@@H]2[C@@H]1CC2(C)C [Caryophllene] ... 89.93
4. CCCCCO [1-Amyl alcohol] ... 96.54
5. CC(C)=CCC/C(C)=C/CC/C(C)=C/CO [Farnesol] ... 55.64
6. CCCCCCCCCCCCCCO [1-Tetradecanol] ... 85.52

====

Parameter Kd: see the listing below.
- TARGET_SYSTEM: UniProt A0A2H4FXX2
- Sequence (A0A2H4FXX2 entry or part of it): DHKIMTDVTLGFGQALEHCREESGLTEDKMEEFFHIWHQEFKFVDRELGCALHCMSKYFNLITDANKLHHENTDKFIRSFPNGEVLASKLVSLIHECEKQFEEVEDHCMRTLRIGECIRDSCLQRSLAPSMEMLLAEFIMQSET
- METHOD_SUMMARY: Fluorescence competitive binding assay with 1-NPN, recombinant GOBP1
- STATED_CONDITIONS: dissociation constant calculated from IC50: KD = [IC50]/(1+[1-NPN]/K1-NPN); pH 7.4; mean ± SD; read-out: KD (μM) GOBP1
MEASURED_ATTRIBUTE: Kd

1) CCCCCC=O ... 3.11 µM
2) CC(C)=CCC/C(C)=C/CC/C(C)=C/CO ... 0.35 µM
3) CCCCCCCCCCC=O ... 7.17 µM
4) CCCCC/C=C/CCCCCCCCC=O [E10-16:Ald, (E)-10-hexadecenal] ... 2.09 µM
5) CCCCC/C=C\CCCCCCCCC=O [Z10-16:Ald, (Z)-10-hexadecenal] ... 1.2 µM
6) CCCCCCCCC=O ... 5.69 µM
7) CCCCCCO ... 25.7 µM
8) CCCCCCCCCCCCCCCC=O ... 0.55 µM
9) C=C(C)[C@H]1CC=C(C)CC1 ... 1.54 µM
10) C=C1CC/C=C(\C)CC[C@@H]2[C@@H]1CC2(C)C ... 3.88 µM
11) CCCCCO ... 14.3 µM
12) CCCCCCC=O ... 5.76 µM
